target: Fuc(a1-2)Gal(b1-4)GlcNAc(b1-2)Man(a1-3)[Fuc(a1-2)Gal(b1-4)GlcNAc(b1-2)Man(a1-6)]Man(b1-4)GlcNAc(b1-4)[Fuc(a1-6)]GlcNAc; assay: glycan array binding signal (z-score within array); higher = stronger binding; conditions: glycan notation: IUPAC condensed, linker removed
Shown is part of a subset that was picked to be rich in the strongest signals.
Could you label it Criterion met if measured glycan array binding signal (z-score) is -0.1 or higher, and Criterion not met otherwise?

Reference set, count: 5
| binder | category label |
| --- | --- |
| AT1G15820(2) (Arabidopsis thaliana), Q9LMQ2 (protein) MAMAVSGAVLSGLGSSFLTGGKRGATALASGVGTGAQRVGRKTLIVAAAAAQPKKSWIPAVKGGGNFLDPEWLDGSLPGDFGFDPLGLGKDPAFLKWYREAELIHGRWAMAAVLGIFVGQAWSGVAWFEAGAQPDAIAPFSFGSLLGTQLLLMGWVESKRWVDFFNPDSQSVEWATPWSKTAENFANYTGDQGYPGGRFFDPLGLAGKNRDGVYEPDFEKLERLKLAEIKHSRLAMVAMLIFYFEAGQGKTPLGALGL | Criterion not met |
| HPL (Tachypleus tridentatus) (protein) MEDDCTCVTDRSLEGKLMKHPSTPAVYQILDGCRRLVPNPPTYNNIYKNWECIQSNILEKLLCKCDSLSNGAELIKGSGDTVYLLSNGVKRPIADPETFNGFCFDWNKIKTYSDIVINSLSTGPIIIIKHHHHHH | Criterion met |
| Banana lectin (Musa acuminata) (protein) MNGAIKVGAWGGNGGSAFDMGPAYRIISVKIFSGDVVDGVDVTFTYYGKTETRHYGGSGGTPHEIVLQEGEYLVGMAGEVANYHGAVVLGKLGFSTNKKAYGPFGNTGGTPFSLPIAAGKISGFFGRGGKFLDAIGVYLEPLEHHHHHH | Criterion met |
| OGAN (protein) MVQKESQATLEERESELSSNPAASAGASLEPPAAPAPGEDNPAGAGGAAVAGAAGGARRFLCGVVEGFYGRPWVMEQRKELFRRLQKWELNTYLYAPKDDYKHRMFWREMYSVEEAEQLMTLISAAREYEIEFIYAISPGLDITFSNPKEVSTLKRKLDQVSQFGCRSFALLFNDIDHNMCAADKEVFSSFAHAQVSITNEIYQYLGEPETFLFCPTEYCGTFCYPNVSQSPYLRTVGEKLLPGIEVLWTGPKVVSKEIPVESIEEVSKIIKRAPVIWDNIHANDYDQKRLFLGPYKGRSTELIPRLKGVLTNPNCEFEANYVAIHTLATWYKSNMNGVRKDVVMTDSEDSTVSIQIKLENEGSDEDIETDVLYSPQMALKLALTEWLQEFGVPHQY | Criterion met |
| YASPKCFRYPNGVLACT [Odorranalectin (Odorrana grahami), B3TFE9_RANGR] | Criterion not met |

Answer whether glycan array binding signal (z-score) of HPA (Helix pomatia), Q575S3 (protein) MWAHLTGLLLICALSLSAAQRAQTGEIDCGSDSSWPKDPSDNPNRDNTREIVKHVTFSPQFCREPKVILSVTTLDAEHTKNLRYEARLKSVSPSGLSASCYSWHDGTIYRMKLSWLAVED is greater than or equal to -0.1.
Criterion not met
